Assay: Pharmacokinetics of CBP501, single agent study
Type: in vivo, human
Details: human, in vivo, 12.73 mg/m2, single agent, 12.73 mg/m^2, Day 15, mean, N 3
Counter-ions that a name gives are not always drawn. Square brackets hold non-standard residues; d marks the D form. Peptide text beside a SMILES is read from it. dPhe(F5) = N[C@H](Cc1c(F)c(F)c(F)c(F)c1F)C(=O)O; dBpa = N[C@H](Cc1ccc(C(=O)c2ccccc2)cc1)C(=O)O; dCha = N[C@H](CC1CCCCC1)C(=O)O
readout_type: half-life (h)
Return type: number; implicit unit h.

Could you share which half-life value was measured for N=C(N)NCCC[C@@H](NC(=O)[C@@H](CCCNC(=N)N)NC(=O)[C@@H](CCC(N)=O)NC(=O)[C@@H](CCCNC(=N)N)NC(=O)[C@@H](CCCNC(=N)N)NC(=O)[C@@H](CCCNC(=N)N)NC(=O)[C@@H](CC1CCCCC1)NC(=O)[C@@H](Cc1c(F)c(F)c(F)c(F)c1F)NC(=O)[C@@H](CO)NC(=O)[C@@H](Cc1c[nH]c2ccccc12)NC(=O)[C@@H](CO)NC(=O)[C@H](N)Cc1ccc(C(=O)c2ccccc2)cc1)C(=O)O [CBP501, acetate salt] (H-[dBpa][dS][dW][dS][dPhe(F5)][dCha][dR][dR][dR][dQ][dR][dR]-OH) ?
2.4

----------
Assay: Pharmacokinetics of CBP501, single agent study
Type: in vivo, human
Details: human, in vivo, 12.73 mg/m2, single agent, 12.73 mg/m^2, Day 1, mean, N 3
Counter-ions that a name gives are not always drawn. Square brackets hold non-standard residues; d marks the D form. Peptide text beside a SMILES is read from it. dPhe(F5) = N[C@H](Cc1c(F)c(F)c(F)c(F)c1F)C(=O)O; dBpa = N[C@H](Cc1ccc(C(=O)c2ccccc2)cc1)C(=O)O; dCha = N[C@H](CC1CCCCC1)C(=O)O
readout_type: Cmax (ng/mL)
Use ng/mL as the unit, but write only the number.

I am curious: what Cmax value has been reported for N=C(N)NCCC[C@@H](NC(=O)[C@@H](CCCNC(=N)N)NC(=O)[C@@H](CCC(N)=O)NC(=O)[C@@H](CCCNC(=N)N)NC(=O)[C@@H](CCCNC(=N)N)NC(=O)[C@@H](CCCNC(=N)N)NC(=O)[C@@H](CC1CCCCC1)NC(=O)[C@@H](Cc1c(F)c(F)c(F)c(F)c1F)NC(=O)[C@@H](CO)NC(=O)[C@@H](Cc1c[nH]c2ccccc12)NC(=O)[C@@H](CO)NC(=O)[C@H](N)Cc1ccc(C(=O)c2ccccc2)cc1)C(=O)O [CBP501, acetate salt] (H-[dBpa][dS][dW][dS][dPhe(F5)][dCha][dR][dR][dR][dQ][dR][dR]-OH) ?
2730

----------
Assay: Pharmacokinetics of CBP501, single agent study
Format: in vivo, human
Details: human, in vivo, 22.5 mg/m2, single agent, 22.5 mg/m^2, Day 15, mean, N 5
Where a name gives a salt, the structure may show the parent alone. Square brackets hold non-standard residues; d marks the D form. Peptide text beside a SMILES is read from it. dPhe(F5) = N[C@H](Cc1c(F)c(F)c(F)c(F)c1F)C(=O)O; dBpa = N[C@H](Cc1ccc(C(=O)c2ccccc2)cc1)C(=O)O; dCha = N[C@H](CC1CCCCC1)C(=O)O
readout_type: half-life (h)
Enter your answer as a number in h; do not include the unit.

May I ask what half-life has been recorded for N=C(N)NCCC[C@@H](NC(=O)[C@@H](CCCNC(=N)N)NC(=O)[C@@H](CCC(N)=O)NC(=O)[C@@H](CCCNC(=N)N)NC(=O)[C@@H](CCCNC(=N)N)NC(=O)[C@@H](CCCNC(=N)N)NC(=O)[C@@H](CC1CCCCC1)NC(=O)[C@@H](Cc1c(F)c(F)c(F)c(F)c1F)NC(=O)[C@@H](CO)NC(=O)[C@@H](Cc1c[nH]c2ccccc12)NC(=O)[C@@H](CO)NC(=O)[C@H](N)Cc1ccc(C(=O)c2ccccc2)cc1)C(=O)O [CBP501, acetate salt] (H-[dBpa][dS][dW][dS][dPhe(F5)][dCha][dR][dR][dR][dQ][dR][dR]-OH) ?
4

----------
Assay: Pharmacokinetics of CBP501, single agent study
Format: in vivo, human
Details: human, in vivo, 12.73 mg/m2, single agent, 12.73 mg/m^2, Day 1, mean, N 3
Text: PK was examined in cycle (cy) 1. MTD is the level below that where 2 of 3-6 patients (pts) have DLT during cy 1-2. In the single agent study, PK was examined in cycle 1. Samples were collected on Days 1 and 15 before the start of the infusion, then at various time points over 24 hr from the start of the infusion, as described below.
Where a name gives a salt, the structure may show the parent alone. Square brackets hold non-standard residues; d marks the D form. Peptide text beside a SMILES is read from it. dPhe(F5) = N[C@H](Cc1c(F)c(F)c(F)c(F)c1F)C(=O)O; dBpa = N[C@H](Cc1ccc(C(=O)c2ccccc2)cc1)C(=O)O; dCha = N[C@H](CC1CCCCC1)C(=O)O
readout_type: half-life (h)
Could you give me the number in h? Just the number is fine.

Given the compound N=C(N)NCCC[C@@H](NC(=O)[C@@H](CCCNC(=N)N)NC(=O)[C@@H](CCC(N)=O)NC(=O)[C@@H](CCCNC(=N)N)NC(=O)[C@@H](CCCNC(=N)N)NC(=O)[C@@H](CCCNC(=N)N)NC(=O)[C@@H](CC1CCCCC1)NC(=O)[C@@H](Cc1c(F)c(F)c(F)c(F)c1F)NC(=O)[C@@H](CO)NC(=O)[C@@H](Cc1c[nH]c2ccccc12)NC(=O)[C@@H](CO)NC(=O)[C@H](N)Cc1ccc(C(=O)c2ccccc2)cc1)C(=O)O [CBP501, acetate salt] (H-[dBpa][dS][dW][dS][dPhe(F5)][dCha][dR][dR][dR][dQ][dR][dR]-OH) , what is its reported half-life?
1.4

----------
Assay: Pharmacokinetics of CBP501, single agent study
Assay type: in vivo, human
Settings: human, in vivo, 7.2 mg/m2, single agent, 7.2 mg/m^2, Day 15, mean, N 3
Where a name gives a salt, the structure may show the parent alone. Square brackets hold non-standard residues; d marks the D form. Peptide text beside a SMILES is read from it. dPhe(F5) = N[C@H](Cc1c(F)c(F)c(F)c(F)c1F)C(=O)O; dBpa = N[C@H](Cc1ccc(C(=O)c2ccccc2)cc1)C(=O)O; dCha = N[C@H](CC1CCCCC1)C(=O)O
readout_type: Cmax (ng/mL)
Answer format: numeric, ng/mL implied, no suffix.

Item N=C(N)NCCC[C@@H](NC(=O)[C@@H](CCCNC(=N)N)NC(=O)[C@@H](CCC(N)=O)NC(=O)[C@@H](CCCNC(=N)N)NC(=O)[C@@H](CCCNC(=N)N)NC(=O)[C@@H](CCCNC(=N)N)NC(=O)[C@@H](CC1CCCCC1)NC(=O)[C@@H](Cc1c(F)c(F)c(F)c(F)c1F)NC(=O)[C@@H](CO)NC(=O)[C@@H](Cc1c[nH]c2ccccc12)NC(=O)[C@@H](CO)NC(=O)[C@H](N)Cc1ccc(C(=O)c2ccccc2)cc1)C(=O)O [CBP501, acetate salt] (H-[dBpa][dS][dW][dS][dPhe(F5)][dCha][dR][dR][dR][dQ][dR][dR]-OH) has what recorded Cmax?
2010

----------
Assay: Pharmacokinetics of CBP501, single agent study
Format: in vivo, human
Details: human, in vivo, 22.5 mg/m2, single agent, 22.5 mg/m^2, Day 15, mean, N 5
Where a name gives a salt, the structure may show the parent alone. Square brackets hold non-standard residues; d marks the D form. Peptide text beside a SMILES is read from it. dPhe(F5) = N[C@H](Cc1c(F)c(F)c(F)c(F)c1F)C(=O)O; dBpa = N[C@H](Cc1ccc(C(=O)c2ccccc2)cc1)C(=O)O; dCha = N[C@H](CC1CCCCC1)C(=O)O
readout_type: AUC(0-inf)

Field request: AUC(0-inf) | item: N=C(N)NCCC[C@@H](NC(=O)[C@@H](CCCNC(=N)N)NC(=O)[C@@H](CCC(N)=O)NC(=O)[C@@H](CCCNC(=N)N)NC(=O)[C@@H](CCCNC(=N)N)NC(=O)[C@@H](CCCNC(=N)N)NC(=O)[C@@H](CC1CCCCC1)NC(=O)[C@@H](Cc1c(F)c(F)c(F)c(F)c1F)NC(=O)[C@@H](CO)NC(=O)[C@@H](Cc1c[nH]c2ccccc12)NC(=O)[C@@H](CO)NC(=O)[C@H](N)Cc1ccc(C(=O)c2ccccc2)cc1)C(=O)O [CBP501, acetate salt] (H-[dBpa][dS][dW][dS][dPhe(F5)][dCha][dR][dR][dR][dQ][dR][dR]-OH)
20200 ng·h/mL
